Hello, the source for this data is paper PMC8175350, in case you need it.

# CC50 at 24 h per entry
- Assay Summary: Uninfected HeLa-ACE2 24 h live/dead cytotoxicity counter screen
- Format: cell-based, human
- Test Conditions: human, uninfected HeLa-ACE2 cells, unrounded geometric mean; read-out: HeLa-ACE2 uninfected cytotoxicity CC50 GeoMean
Structures can show the parent of a compound that is named as a salt.
Readout Label: CC50 at 24 h

- Molecule: "N=C(N)c1ccc2cc(OC(=O)c3ccc(N=C(N)N)cc3)ccc2c1 [Nafamostat mesylate]"
  Measured Value: "> 39800 nM"
- Molecule: "CN(C)C(=O)COC(=O)Cc1ccc(OC(=O)c2ccc(NC(=N)N)cc2)cc1 [Camostat mesylate]"
  Measured Value: "> 39800 nM"
- Molecule: "COCc1c(C(C)C)nc(C(C)C)c(/C=C/[C@@H](O)C[C@@H](O)CC(=O)O)c1-c1ccc(F)cc1 [Cerivastatin sodium]"
  Measured Value: "308 nM"
- Molecule: "CC[C@@H]1/C=C/C=C/C[C@H](C)[C@@H](O)[C@](C)(O)C(=O)[C@H](C)[C@@H](O)[C@H](C)C(=O)[C@H](C)[C@@H](O)[C@H](C)/C=C/C(=O)O[C@H]2[C@@H](C)[C@@H](CC1)O[C@]1(O[C@H](C[C@H](C)O)[C@H](C)CC1=O)[C@@H]2C"
  Measured Value: "22000 nM"
- Molecule: "CCc1ccc(C2=CC(C)(C)Sc3ccc(C#Cc4ccc(C(=O)O)cc4)cc32)cc1"
  Measured Value: "> 39800 nM"
- Molecule: "CC[C@H]1CN2CCc3cc(OC)c(OC)cc3[C@@H]2C[C@@H]1C[C@H]1NCCc2cc(OC)c(OC)cc21"
  Measured Value: "340 nM"
- Molecule: "CCCCCCCCCCCCCC(=O)O[C@@H]1[C@@H](C)[C@@]2(O)[C@@H](C=C(CO)C[C@]3(O)C(=O)C(C)=C[C@@H]23)[C@@H]2C(C)(C)[C@]12OC(C)=O [Phorbol 12-myristate 13-acetate]"
  Measured Value: "> 201 nM"
- Molecule: "CCCCCCCC/C=C/CCCCCCCC(=O)OC[C@H]1O[C@@H](n2ccc(N)nc2=O)C(F)(F)[C@@H]1O [Gemcitabine elaidate]"
  Measured Value: "< 5.82 nM"
